# target.entity: T1, rat CD47 (rat, UniProt P97829 19-303)
# T1 construct: whole, on cells; also called CD47 on rat RBCs
# T1 sequence (looked up): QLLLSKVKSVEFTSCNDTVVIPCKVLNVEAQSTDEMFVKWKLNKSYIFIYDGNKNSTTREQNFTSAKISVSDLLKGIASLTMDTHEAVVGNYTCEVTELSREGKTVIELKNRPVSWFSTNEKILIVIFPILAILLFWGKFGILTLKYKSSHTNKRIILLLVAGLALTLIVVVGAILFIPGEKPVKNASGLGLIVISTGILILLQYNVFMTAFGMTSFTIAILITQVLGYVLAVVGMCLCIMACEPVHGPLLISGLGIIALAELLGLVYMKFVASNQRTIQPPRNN
# assay.procedure: FACS, rat RBCs, supernatant 10 ng/ml
mean fluorescence relative to chimera vs 1: less than gives y; not less than gives n.

Clone 11 (pVxK7b-037-hum11-LC / pVxK7b-037-hum11-HC) (antibody, human IgG1, kappa, V domains shown, also called Cl 11) VH: QVQLQESGPGLVKPGATVKISCKVSGYTFTNYYVFWVRQARGQRLEWIGDINPVNGDTNFNEKFKNRVTITADKSTSTAYMELSSLRSEDTAVYYCARGGYTMDYWGQGTLVTVSS VL: EIVLTQSPATLSVSPGERATLSCRSSQSLVHSNGNTYLHWYQQKPGQAPRLLIYKVSYRFSGVPSRFSGSGSGTDFTFTISSLEAEDAATYYCSQNTHVPRTFGQGTKVEIKR | n
Clone 22 (pVxK7b-037-hum22-LC / pVxK7b-037-hum22-HC) (antibody, human IgG1, kappa, V domains shown) VH: QVQLQESGPGLVKPSQTLSLTCTVSGYTFTNYYVFWVRQARGQRLEWIGDINPVNGDTNFNEKFKNRLTISKDTSKNQVVLTMTNMDPVDTATYYCARGGYTMDYWGQGTLVTVSS VL: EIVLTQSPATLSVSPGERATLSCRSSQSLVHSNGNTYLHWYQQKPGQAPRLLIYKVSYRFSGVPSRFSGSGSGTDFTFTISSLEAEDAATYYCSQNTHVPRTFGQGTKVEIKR | n
Clone 7 (pVxK7b-037-hum07-LC / pVxK7b-037-hum07-HC) (antibody, human IgG1, kappa, V domains shown) VH: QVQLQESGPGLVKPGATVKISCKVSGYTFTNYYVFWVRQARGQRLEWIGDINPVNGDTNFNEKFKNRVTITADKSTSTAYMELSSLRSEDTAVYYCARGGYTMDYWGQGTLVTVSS VL: DIVMTQTPLSLPVTPGEPASISCRSSQSLVHSNGNTYLHWYLQKPGQSPQLLIYKVSYRFSGVPDRFSGSGSGTDFTLKISRVEAEDVGVYYCSQNTHVPRTFGQGTKVEIKR | y
Clone 16 (pVxK7b-037-hum16-LC / pVxK7b-037-hum16-HC) (antibody, human IgG1, kappa, V domains shown) VH: QVQLQESGPGLVKPSQTLSLTCTVSGYTFTNYYVFWVRQARGQRLEWIGDINPVNGDTNFNEKFKNRVTISADKSISTAYLQWSSLKASDTAMYYCARGGYTMDYWGQGTLVTVSS VL: AIQLTQSPSSLSASVGDRVTITCRSSQSLVHSNGNTYLHWYQQKPGQAPRLLIYKVSYRFSGVPDRFSGSGSGTDFTLKISRVEAEDVGVYYCSQNTHVPRTFGQGTKVEIKR | n

The reported numbers originate from patent US20180051081A1.
